TARGET_OR_TEST_SYSTEM: Lxrα (Homo sapiens)
Construct: expressed in transfected cells; host or cells: SN4741 mouse neuronal cell line
Sequence (Q13133 whole entry): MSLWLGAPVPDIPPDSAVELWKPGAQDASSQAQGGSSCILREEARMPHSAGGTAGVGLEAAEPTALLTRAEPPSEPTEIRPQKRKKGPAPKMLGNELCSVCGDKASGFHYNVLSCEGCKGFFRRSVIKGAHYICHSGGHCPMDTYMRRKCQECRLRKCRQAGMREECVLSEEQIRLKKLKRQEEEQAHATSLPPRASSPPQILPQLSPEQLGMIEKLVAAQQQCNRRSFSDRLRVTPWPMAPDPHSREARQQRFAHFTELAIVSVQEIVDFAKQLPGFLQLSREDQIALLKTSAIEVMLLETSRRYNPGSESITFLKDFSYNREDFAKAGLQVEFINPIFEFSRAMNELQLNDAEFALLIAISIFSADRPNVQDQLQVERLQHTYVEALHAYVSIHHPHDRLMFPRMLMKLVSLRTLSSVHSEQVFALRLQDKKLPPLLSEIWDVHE
ASSAY_PROCEDURE: Lxr-responsive luciferase reporter assay (Lxre + Lxrα) in SN4741 neural cells
Format: cell-based, mouse
STATED_CONDITIONS: 10 μM, 24 h
MEASURED_ENDPOINT: Lxrα activation, luciferase activity

C[C@H](CCCC(C)(C)O)[C@H]1CC[C@H]2[C@@H]3CC=C4C[C@@H](O)CC[C@]4(C)[C@H]3CC[C@]12C | activate Lxr
CC(C)[C@@H](O)CC[C@@H](C)[C@H]1CC[C@H]2[C@@H]3CC=C4C[C@@H](O)CC[C@]4(C)[C@H]3CC[C@]12C [24S-HC, Cholest-5-ene-3β,24S-diol] | activate Lxr
